B1: Hairpin Ribozyme (parent)
chain: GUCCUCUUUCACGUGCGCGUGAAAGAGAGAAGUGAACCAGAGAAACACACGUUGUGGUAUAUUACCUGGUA

- Variants of: B1
- assaySummary: self-cleavage, relative activity (ratio to wild type); higher = more cleavage; co-transcriptional
Given measured self-cleavage, output Satisfied if it is greater than or equal to 0.2 and Not satisfied if not.

Answered examples (10):
• G40U C48G = Not satisfied
• U9C G40C = Not satisfied
• A49U A64U = Not satisfied
• C6A U55G = Not satisfied
• A41G A43U = Not satisfied
• U2A G56U = Not satisfied
• A11U G34U = Satisfied
• G1C U53C = Satisfied
• A22U C50G = Satisfied
• G56U U63C = Not satisfied

Asked: Please indicate if the recorded self-cleavage for U14A U60C meets or exceeds 0.2.
Given back: Satisfied

Asked: Identify whether the reported self-cleavage of the following variant is 0.2 or greater: G1U U33C
Given back: Not satisfied

Asked: Reported self-cleavage at or above 0.2? A11G A35G
Given back: Satisfied

Asked: Please tell me: is the variant U7A A30U at or over 0.2 in terms of self-cleavage?
Given back: Not satisfied

Asked: Could you verify whether the entry G21A G42A shows self-cleavage of no less than 0.2?
Given back: Satisfied

Asked: API: above_or_equal(metric=self-cleavage, cutoff=0.2) for item C4A G32C
Given back: Not satisfied

Asked: Does the reported self-cleavage for C10A U60A fall at or above the 0.2 mark?
Given back: Satisfied

Asked: Does the reported self-cleavage for C46A G54U fall at or above the 0.2 mark?
Given back: Satisfied

Asked: Check if self-cleavage >= 0.2 (inclusive). Item: U14G U63A
Given back: Satisfied

Asked: Confirm if self-cleavage reported for the variant G13U is 0.2 or above.
Given back: Satisfied

Asked: Is self-cleavage at least 0.2? Consider G51A A59G
Given back: Satisfied

Asked: Hi team, for A35C A44G , is the recorded self-cleavage at or above 0.2?
Given back: Not satisfied

Asked: Dear colleague, could you confirm whether G32A G69C has self-cleavage at or above 0.2?
Given back: Not satisfied

Asked: Does self-cleavage meet or surpass 0.2 for U53C G69C ?
Given back: Satisfied

Asked: Is self-cleavage for U52G A61G at or above 0.2?
Given back: Not satisfied

Asked: In plain terms: is recorded self-cleavage at least 0.2 for C46U G51A ?
Given back: Not satisfied

Asked: Textbook exercise: given the entry C12G A30U , state whether its self-cleavage is greater than or equal to 0.2.
Given back: Not satisfied

Asked: Is it the case that U7G A71C has self-cleavage reaching or exceeding 0.2?
Given back: Satisfied

Asked: Threshold query (self-cleavage >= 0.2) on G57U U58G
Given back: Not satisfied

Asked: Reported self-cleavage at or above 0.2? G1C U60G
Given back: Not satisfied

Asked: Please tell me: is the variant A22U G54C at or over 0.2 in terms of self-cleavage?
Given back: Satisfied

Asked: Is self-cleavage for C48U C65A at or above 0.2?
Given back: Not satisfied

Just for reference, the RNAGym collection of RNA variant scans (doi:10.7554/elife.80360) is where these values come from.
